This collection of values is drawn from PubChem BioAssay (NCI).

System: OVCAR-5 ovarian
Procedure Details: NCI-60 one-dose screen, 48 h
Measurement Parameters: 10 µM unless noted
Compounds without any hit were thinned out: in the full panel of roughly 83,000, 20% have a hit. Active and inactive are the calls of the source. The calls were made as follows: active = growth percent below 10; inactive = the rest.
Mark one answer only. Choices: class 1 (active), class 0 (inactive)

Recorded call for COc1cc(C(=O)/C=C/c2c(C)n([O-])c3ccc(C(F)(F)F)cc3[n+]2=O)cc(OC)c1OC ?
class 0

As a next step, examine the compound that follows.
What call does the record list for CCN(CC)CCC(CNc1ccnc2cc(Cl)ccc12)c1ccc(Cl)cc1 (stereo not drawn) ?
class 0

====

Test system: HS 578T breast
Procedure Details: NCI-60 one-dose screen, 48 h (100 = growth as untreated, 0 = no growth, -100 = all killed)
Measurement Parameters: 10 µM unless noted
Compounds without any hit were thinned out: in the full panel of roughly 83,000, 20% have a hit.
Values of growth greater than or equal to 90% map to YES; values below map to NO.

Solved entries (count: 8):
Hi, just wondering whether O=c1[nH]c(-c2ccccc2)nc(CN2CCCCC2)c1O shows growth of 90% or higher.
YES

Then what about the compound COc1ccc(-c2cnoc2-c2ccc(OC)cc2O)cc1 ?
NO

Please do the same for O=[N+]([O-])c1ccc(OCCCOc2ccccc2)cc1 as well.
YES

Now consider COc1cc(/C=C/C(=O)c2c(C)nc3ccccc3c2C)ccc1OCCCCOc1cc2c(cc1OC)C(=O)N1CCC[C@H]1C=N2 and answer again.
NO

How about C=C1CCC2C(C)(CO)C(O)CCC2(C)C1C/C=C1/C(=O)OCC1Oc1ccccc1C (stereo unspecified) ?
YES

Param item: COc1ccc(N2CCN(Cc3cc(C(=O)/C=C/c4c[nH]c5ccccc45)ccc3O)CC2)cc1
YES

Field entry: COc1ccc(/C=C\c2cc(OC)c(OC)c(OC)c2)cc1OC(=O)c1cccc(Cn2cc(CCOC(=O)c3cccc(Cn4nnc5c4C(=O)c4ccccc4C5=O)c3)nn2)c1
NO

Check COc1ccc(-c2nc(N3CCCC3=O)sc2Br)cc1OC too.
YES

Next:
Decide: growth of CC(C)(C)n1cc(-c2ccnc(NCCNS(=O)(=O)c3ccc(Cl)cc3)c2)c(-c2cccc(O)c2)n1 >= 90%?
NO

Field entry: CCOC(=O)C1CCNC(=O)C1=O (stereo unspecified)
YES

One more compound: Nc1cccc(-c2nc3sccn3c2-c2ccnc(NCCNS(=O)(=O)c3ccc(C(F)(F)F)cc3)n2)c1
NO
